Test system: HCT-116 colon
TEST_SUMMARY: NCI-60 one-dose screen, 48 h (100 = growth as untreated, 0 = no growth, -100 = all killed)
TEST_PARAMETERS: 10 µM unless noted
The panel holds about 83,000 compounds, 20% with a hit somewhere; the sample as a whole holds those more often.
Listing of entries alongside the reported growth.
Number only, in %; omit the unit.

Reference set (5 entries):
[
  {
    "COMPOUND": "Nc1nc2c3ccncc3cc(-c3cccc(Cl)c3)c2c2cnccc12",
    "growth, %": 5.95
  },
  {
    "COMPOUND": "CCc1ccc(-c2ccc(Nc3ccccc3)nn2)cc1S(N)(=O)=O",
    "growth, %": 72.6
  },
  {
    "COMPOUND": "CCOC(=O)C/C(=C\\c1ccccc1)C(C)=O",
    "growth, %": 88.7
  },
  {
    "COMPOUND": "Nc1c(Cl)cc(N=Nc2ccccc2)cc1Cl",
    "growth, %": 67.4
  },
  {
    "COMPOUND": "NC(=O)NCC1CCCCC1",
    "growth, %": 106
  }
]

input: Kindly indicate its recorded growth. Item: "COc1ccc(O)c(-c2cc(-c3ccc(Cl)cc3)c(C#N)c(=O)[nH]2)c1"
output: 73.4

input: Kindly indicate its recorded growth. Item: "COc1cc2nc(Cl)nc(Nc3cccc(C(=O)/C=C/c4ccc(Br)cc4)c3)c2cc1OC"
output: 15.8

input: Kindly indicate its recorded growth. Item: "C=COCCCCCCCCCCCCCCCCCC"
output: 103

input: Kindly indicate its recorded growth. Item: "COc1ccc(-c2cc(-c3c(C)oc4cc5occc5c(OC)c4c3=O)nc(N)c2C#N)cc1OC"
output: 53.7

input: Kindly indicate its recorded growth. Item: "Cn1cc(-c2nc(-c3c[nH]c4ncccc34)cs2)c2cc(F)ccc21"
output: 20.3

input: Kindly indicate its recorded growth. Item: "CN(C)c1ccc(C(=O)c2ccc(N(C)C)c(N)c2)cc1N"
output: 23.6
